# target-under-test: UniProt P33261
# Sequence (P33261 whole entry): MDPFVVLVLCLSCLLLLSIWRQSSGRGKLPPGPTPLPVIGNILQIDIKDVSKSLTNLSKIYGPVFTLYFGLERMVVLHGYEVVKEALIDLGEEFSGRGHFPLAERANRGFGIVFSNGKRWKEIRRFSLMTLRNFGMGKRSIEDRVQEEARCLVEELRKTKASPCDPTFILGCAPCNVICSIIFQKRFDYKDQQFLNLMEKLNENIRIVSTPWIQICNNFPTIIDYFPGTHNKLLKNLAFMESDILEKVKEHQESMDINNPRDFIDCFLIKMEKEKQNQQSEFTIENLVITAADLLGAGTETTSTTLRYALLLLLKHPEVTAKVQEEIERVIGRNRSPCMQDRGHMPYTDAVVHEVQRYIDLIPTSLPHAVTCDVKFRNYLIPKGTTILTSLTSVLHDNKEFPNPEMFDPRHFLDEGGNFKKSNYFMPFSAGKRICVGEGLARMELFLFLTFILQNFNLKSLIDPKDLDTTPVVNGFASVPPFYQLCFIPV
assay-readout: Ki (nM)

Completed entries (count: 5):
1) Cc1oc2ccccc2c1C(=O)c1cc(I)c(O)c(I)c1	7200
2) Cc1oc2ccccc2c1C(=O)C1CCCCC1	13000
3) CCc1oc2ccccc2c1C(O)c1cc(Br)c(O)c(Br)c1 (configuration not stated)	300
4) CCc1oc2ccccc2c1C(=O)c1cc(C)c(OC)c(C)c1	250
5) CCc1oc2ccccc2c1C(=O)c1cc(C)c(O)c(C)c1	33

(a) CCc1oc2ccccc2c1C(=O)c1cc(Br)c(OC)c(Br)c1
(b) CCc1oc2ccccc2c1C(=O)c1ccc(N(C)C)cc1
[Q] Between a and b , whose recorded Ki is greater? Indicate which entry you chose by stating its label.
[A] b

----------
# protocol-description: Dissociation constant, pKa of the compound
# Assay type: physicochemical
assay-readout: pKa

1) Cc1oc2ccccc2c1C(=O)c1ccc(O)cc1	8.4
2) CCc1oc2ccccc2c1C(O)c1cc(Br)c(O)c(Br)c1 (configuration not stated)	8.8
3) Cc1oc2ccccc2c1C(=O)c1cc(I)c(O)c(I)c1	5.2
4) CCc1oc2ccccc2c1C(=O)Cc1cc(Br)c(O)c(Br)c1	8.6
5) CCc1oc2ccccc2c1C(=O)c1cc(C)c(O)c(C)c1	8.5

(I) Cc1oc2ccccc2c1C(=O)c1cccc(O)c1
(II) CCc1oc2ccccc2c1C(=O)c1cc(Br)c(O)c(Br)c1
[Q] Which numeric pKa is bigger, that of I or that of II ? Answer by stating the label of the chosen item.
[A] I
(I: 8.4, II: 4.5)

meta.source: ChEMBL document CHEMBL1149305
